B1: OR4K15 (parent)
chain: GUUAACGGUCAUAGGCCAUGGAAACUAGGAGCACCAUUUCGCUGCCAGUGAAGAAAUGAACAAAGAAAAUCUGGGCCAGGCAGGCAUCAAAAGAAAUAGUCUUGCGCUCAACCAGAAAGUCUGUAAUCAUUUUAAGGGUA

Variants of: B1
Assay: self-cleavage, relative activity (ratio to wild type); higher = more cleavage; in vitro, sequencing; the parent is a self-cleaving ribozyme

[
  {
    "BIOPOLYMER_SEQUENCE": "GUUAACGGUCAUAGGCCAUGGAAACUAGGAGCACCAUUUCGCUGCCAGUGAAGAAAUGAACAAAGAAAAUCUGGGCCAGGCAGGCAUCAAAAGAAAUAGUCCUGCGCUCAACCAGAAAGUCUGUAAUCAUUAUAAGGGUA",
    "self-cleavage": 2.37
  },
  {
    "BIOPOLYMER_SEQUENCE": "GUUAACGGUCAUAGGCCAUGGAAACUAGGAGCACCAUUUCGCUGCCAGUGAAGAAAUGAACAAAGAAAUUCUGGGCCAGGCAGGCAUCAAAAGGAAUAGUCUUGCGCUCAACCAGAAAGUCUGUAAUCAUUUUAAGGGUA",
    "self-cleavage": 2.42
  },
  {
    "BIOPOLYMER_SEQUENCE": "GCUAACGGUCAUAGGCCAUGGAAACUAGGAGCACCAUUUCGCUGCCAGUGAAGAAAUGAACAAAGAAAAUCUGGGCCAGGCAGGCAUCAAAAGAAAUAGUCUUGCGCUCAACCAGAAAGUCUGUAAACAUUUUAAGGGUA",
    "self-cleavage": 2.05
  },
  {
    "BIOPOLYMER_SEQUENCE": "GUUAACGGUCAUAGGCCUUGGAAACUAGGAGCACCAUUUCGCUGCCUGUGAAGAAAUGAACAAAGAAAAUCUGGGCCAGGCAGGCAUCAAAAGAAAUAGUCUUGCGCUCAACCAGAAAGUCUGUAAUCAUUUUAAGGGUA",
    "self-cleavage": 0.78
  },
  {
    "BIOPOLYMER_SEQUENCE": "GUUAACGGUCAUAGGCCAUGGAAACUAGGAGCACCAUUUCGCUGCCAGUGAAGAAAUGGACGAAGAAAAUCUGGGCCAGGCAGGCAUCAAAAGAAAUAGUCUUGCGCUCAACCAGAAAGUCUGUAAUCAUUUUAAGGGUA",
    "self-cleavage": 1.27
  },
  {
    "BIOPOLYMER_SEQUENCE": "GUUAACGGUCAUAGGCCAUGGAAACUAGGAGCACCAUUUCGCUGCCAGUGAAGAAAUGAACAAAGAAAAUCAGGGCCAGGCAGGCAUCAAAAGAAAUAGGCUUGCGCUCAACCAGAAAGUCUGUAAUCAUUUUAAGGGUA",
    "self-cleavage": 0.19
  },
  {
    "BIOPOLYMER_SEQUENCE": "GUUAACGGUCAUAGGCCAUGGAAACUAGGAGCACCAUUUCGCUGCCAGUGAAGAAAUGAACAAAGAAAAUCUGGGCCAGGCAGGCAUCAAAAGAAAUAGGCUCGCGCUCAACCAGAAAGUCUGUAAUCAUUUUAAGGGUA",
    "self-cleavage": 0.09
  },
  {
    "BIOPOLYMER_SEQUENCE": "GUUAACGGUCAUAGGCCAUGGAAACUAGGUGCACCAUUUCGCUGCCAGUGAAGAAAUGAACAAAGAAAAUCAGGGCCAGGCAGGCAUCAAAAGAAAUAGUCUUGCGCUCAACCAGAAAGUCUGUAAUCAUUUUAAGGGUA",
    "self-cleavage": 0.27
  },
  {
    "BIOPOLYMER_SEQUENCE": "GUUAACGGUCAUAGGCCAUGGAAGCUAGGUGCACCAUUUCGCUGCCAGUGAAGAAAUGAACAAAGAAAAUCUGGGCCAGGCAGGCAUCAAAAGAAAUAGUCUUGCGCUCAACCAGAAAGUCUGUAAUCAUUUUAAGGGUA",
    "self-cleavage": 1.29
  },
  {
    "BIOPOLYMER_SEQUENCE": "GUUAACGGUCAUAGGCCAUGGAAUCUAGGAGCACCCUUUCGCUGCCAGUGAAGAAAUGAACAAAGAAAAUCUGGGCCAGGCAGGCAUCAAAAGAAAUAGUCUUGCGCUCAACCAGAAAGUCUGUAAUCAUUUUAAGGGUA",
    "self-cleavage": 1.63
  },
  {
    "BIOPOLYMER_SEQUENCE": "GUUAACGGUCAUAGGCCAAGGAAACUAGGAGCACCAUUUCGCUGCCAGUGAAGAAAUGAACAAAGAAAAUCUGGGCCAGGCAGGCAUCAAAAGAAAUAGUCUUGCGCUCAACCAGAGAGUCUGUAAUCAUUUUAAGGGUA",
    "self-cleavage": 1.57
  },
  {
    "BIOPOLYMER_SEQUENCE": "GUUAACGGUCAUAGGCCAUGGAAACUAGGAGCACCGUUUCGCUGCCAGUGAAGAAAUGAACAAAGAAAAUCUGGGCCAGGCAGGCAUCAAAAGAAAUAGUCUUGCGCUCAACCAGAAAGUCUGUAAACAUUUUAAGGGUA",
    "self-cleavage": 1.87
  },
  {
    "BIOPOLYMER_SEQUENCE": "GUUAACGGUCAUAGGCCAUGGAAACUAGGUGCACCAUUUCGCUGCCAGUGAAGAAAUGAACAGAGAAAAUCUGGGCCAGGCAGGCAUCAAAAGAAAUAGUCUUGCGCUCAACCAGAAAGUCUGUAAUCAUUUUAAGGGUA",
    "self-cleavage": 2.01
  },
  {
    "BIOPOLYMER_SEQUENCE": "GUUAACGGUCACAGGCCAUGGAAACUAGGAGCACCAUAUCGCUGCCAGUGAAGAAAUGAACAAAGAAAAUCUGGGCCAGGCAGGCAUCAAAAGAAAUAGUCUUGCGCUCAACCAGAAAGUCUGUAAUCAUUUUAAGGGUA",
    "self-cleavage": 0.89
  },
  {
    "BIOPOLYMER_SEQUENCE": "GUUAACGGUCAUAGGCCAUGGAAACUAGGAGCACCAUUUCGCUGCCAGUGAAGAAAUGAACAAAGAAAAUCUGGGCCAGGCAGGCAUCAAAAGAAAUAUUCUCGCGCUCAACCAGAAAGUCUGUAAUCAUUUUAAGGGUA",
    "self-cleavage": 0.15
  },
  {
    "BIOPOLYMER_SEQUENCE": "GUUAACGGUCAUAGGCCAUGGAAACUAGGAGCACCUUUUCGCUGCCAGUGAAGAAAUGAACAAAGAAAAUCUGGGCCAGGCAGGCGUCAAAAGAAAUAGUCUUGCGCUCAACCAGAAAGUCUGUAAUCAUUUUAAGGGUA",
    "self-cleavage": 1.03
  },
  {
    "BIOPOLYMER_SEQUENCE": "GUUAACGGUCAUAGGCCAUGGAAACUAGGAGCACCAUUUCGCUGCCAGUGAAGAAAUGAACAAAGUAAAUCUGGGCCAGGCAGGCAUCAAAAGAAAUAGUCUUGCGCUCAACCAGAAAGUCUGUAAUCAUUUUAAGGGUG",
    "self-cleavage": 2.51
  },
  {
    "BIOPOLYMER_SEQUENCE": "GUUAACGGUCAUAGGCCAUAGAAACUCGGAGCACCAUUUCGCUGCCAGUGAAGAAAUGAACAAAGAAAAUCUGGGCCAGGCAGGCAUCAAAAGAAAUAGUCUUGCGCUCAACCAGAAAGUCUGUAAUCAUUUUAAGGGUA",
    "self-cleavage": 1.93
  },
  {
    "BIOPOLYMER_SEQUENCE": "GUUAACGGUCAUAGGCCAUGGAAACUAGGAGCACCAUUUCGGAGCCAGUGAAGAAAUGAACAAAGAAAAUCUGGGCCAGGCAGGCAUCAAAAGAAAUAGUCUUGCGCUCAACCAGAAAGUCUGUAAUCAUUUUAAGGGUA",
    "self-cleavage": 1.91
  },
  {
    "BIOPOLYMER_SEQUENCE": "GUUAACGGUCAUAGGCCAUGGAAGCUAGGAGCACCAUUUCGCUGCCAGCGAAGAAAUGAACAAAGAAAAUCUGGGCCAGGCAGGCAUCAAAAGAAAUAGUCUUGCGCUCAACCAGAAAGUCUGUAAUCAUUUUAAGGGUA",
    "self-cleavage": 1.37
  },
  {
    "BIOPOLYMER_SEQUENCE": "GUUAACGGUCAUAGGCCAUGGAGACUAGGAGCACCAUUUCGCUGCCAGUUAAGAAAUGAACAAAGAAAAUCUGGGCCAGGCAGGCAUCAAAAGAAAUAGUCUUGCGCUCAACCAGAAAGUCUGUAAUCAUUUUAAGGGUA",
    "self-cleavage": 0.79
  },
  {
    "BIOPOLYMER_SEQUENCE": "GCUAACGGUCAUAGGCCAUGGAACCUAGGAGCACCAUUUCGCUGCCAGUGAAGAAAUGAACAAAGAAAAUCUGGGCCAGGCAGGCAUCAAAAGAAAUAGUCUUGCGCUCAACCAGAAAGUCUGUAAUCAUUUUAAGGGUA",
    "self-cleavage": 1.16
  }
]

src = the RNAGym collection of RNA variant scans (doi:10.7554/elife.90254)
